Hi there, I'd appreciate the recorded Papp at 18 h, 100 µM for every entry that follows.
method: Effective passive permeability of the compound at 100 uM at pH 7.4 after 18 hrs by UHPLC-UV based PAMPA-BBB assay
Type: ADME
measurement_setup: read-out: Peff
Response body: numeric value in ×10⁻⁶ cm/s, unit text excluded.

[in] Please report the recorded Papp at 18 h, 100 µM for O=C(CCCCCc1ccc2c(c1)OCO2)NO .
[out] 8.7

[in] Please report the recorded Papp at 18 h, 100 µM for CN1CCc2c(c3ccccc3n2Cc2ccc(C(=O)NO)cc2)C1 [TUBASTATIN A] .
[out] 6.8

###

method: Effective passive permeability of the compound assessed as membrane retention at 100 uM at pH 7.4 after 18 hrs by UHPLC-UV based PAMPA-BBB assay
Type: ADME
measurement_setup: pH 7.4, 18 h
experimental_endpoint: R% (%)
Response body: numeric value in %, unit text excluded.

[in] Please report the recorded R% for O=C(CCCCCc1ccc2c(c1)OCO2)NO .
[out] 6.8

[in] Please report the recorded R% for CN1CCc2c(c3ccccc3n2Cc2ccc(C(=O)NO)cc2)C1 [TUBASTATIN A] .
[out] 70.8

###

subject_of_test: Protein deacetylase HDAC6 (Homo sapiens)
Sequence (Q9UBN7 whole entry): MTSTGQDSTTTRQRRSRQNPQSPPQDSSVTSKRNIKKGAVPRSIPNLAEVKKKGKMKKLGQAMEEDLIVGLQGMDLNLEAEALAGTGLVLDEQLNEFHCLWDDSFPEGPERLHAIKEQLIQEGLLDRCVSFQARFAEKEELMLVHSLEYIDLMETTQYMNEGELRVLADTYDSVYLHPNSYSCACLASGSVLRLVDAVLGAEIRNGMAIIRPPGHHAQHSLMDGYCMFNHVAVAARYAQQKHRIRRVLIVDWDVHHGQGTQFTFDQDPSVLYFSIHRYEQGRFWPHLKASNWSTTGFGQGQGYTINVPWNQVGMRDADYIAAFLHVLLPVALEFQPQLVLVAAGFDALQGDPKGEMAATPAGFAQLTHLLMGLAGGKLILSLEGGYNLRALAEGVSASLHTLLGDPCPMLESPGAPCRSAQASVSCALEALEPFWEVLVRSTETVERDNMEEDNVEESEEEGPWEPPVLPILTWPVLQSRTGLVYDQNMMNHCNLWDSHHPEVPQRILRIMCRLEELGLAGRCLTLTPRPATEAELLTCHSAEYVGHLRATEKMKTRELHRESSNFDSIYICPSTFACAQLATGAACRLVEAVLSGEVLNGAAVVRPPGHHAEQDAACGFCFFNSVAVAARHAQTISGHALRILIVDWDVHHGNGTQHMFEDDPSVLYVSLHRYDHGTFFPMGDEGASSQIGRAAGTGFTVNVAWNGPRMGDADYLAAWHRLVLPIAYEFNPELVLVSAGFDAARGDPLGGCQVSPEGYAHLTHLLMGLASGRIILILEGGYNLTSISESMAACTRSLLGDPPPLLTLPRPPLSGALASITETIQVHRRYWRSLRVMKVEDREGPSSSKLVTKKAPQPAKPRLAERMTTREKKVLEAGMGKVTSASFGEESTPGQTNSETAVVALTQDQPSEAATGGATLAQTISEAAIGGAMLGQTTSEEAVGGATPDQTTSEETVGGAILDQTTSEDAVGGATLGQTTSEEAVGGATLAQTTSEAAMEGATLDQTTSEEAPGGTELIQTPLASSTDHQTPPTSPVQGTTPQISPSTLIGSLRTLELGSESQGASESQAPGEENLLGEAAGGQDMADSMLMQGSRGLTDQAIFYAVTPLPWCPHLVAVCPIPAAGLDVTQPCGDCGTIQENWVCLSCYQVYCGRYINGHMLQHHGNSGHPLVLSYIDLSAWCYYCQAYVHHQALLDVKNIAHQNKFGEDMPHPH
method: Inhibition of human recombinant HDAC6 expressed in baculovirus infected insect cells using BATCP as substrate after 4 hrs by UHPLC-ESI-MS/MS analysis
experimental_endpoint: IC50
Record the result as number plus unit.

[in] Please report the recorded IC50 for O=C(CCCCCc1ccc2c(c1)OCO2)NO .
[out] 36.7 nM

###

subject_of_test: Histone deacetylase 1 (Homo sapiens)
experimental_endpoint: pIC50
Conceptually, pIC50 converts a concentration in mol/L into minus its log10.

[in] Please report the recorded pIC50 for O=C(CCCCCc1ccc2c(c1)OCO2)NO .
[out] 6.01

###

subject_of_test: Histone deacetylase 1 (Homo sapiens, UniProt Q13547)
Sequence (Q13547 whole entry): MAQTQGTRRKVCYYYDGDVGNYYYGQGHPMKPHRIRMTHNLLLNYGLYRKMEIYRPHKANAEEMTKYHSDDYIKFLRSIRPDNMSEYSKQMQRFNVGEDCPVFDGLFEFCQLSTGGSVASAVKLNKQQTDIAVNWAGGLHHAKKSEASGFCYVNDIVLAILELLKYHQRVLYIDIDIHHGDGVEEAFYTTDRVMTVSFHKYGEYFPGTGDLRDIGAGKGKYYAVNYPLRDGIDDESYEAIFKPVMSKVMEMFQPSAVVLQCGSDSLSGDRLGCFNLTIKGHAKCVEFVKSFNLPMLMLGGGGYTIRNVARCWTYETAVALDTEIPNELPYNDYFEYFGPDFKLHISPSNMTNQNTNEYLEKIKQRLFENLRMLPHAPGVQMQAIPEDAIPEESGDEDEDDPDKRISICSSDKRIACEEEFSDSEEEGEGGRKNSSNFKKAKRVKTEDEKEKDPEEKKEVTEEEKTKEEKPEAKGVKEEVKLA
method: biochemical
experimental_endpoint: pIC50
Conceptually, pIC50 converts a concentration in mol/L into minus its log10.

[in] Give the reported pIC50 for O=C(CCCCCc1ccc2c(c1)OCO2)NO (system: Histone deacetylase 1 (Homo sapiens, UniProt Q13547)).
[out] 6.25
